- Target system: hNAMPT protein (Homo sapiens (Human))
- Sequence (P43490 whole entry): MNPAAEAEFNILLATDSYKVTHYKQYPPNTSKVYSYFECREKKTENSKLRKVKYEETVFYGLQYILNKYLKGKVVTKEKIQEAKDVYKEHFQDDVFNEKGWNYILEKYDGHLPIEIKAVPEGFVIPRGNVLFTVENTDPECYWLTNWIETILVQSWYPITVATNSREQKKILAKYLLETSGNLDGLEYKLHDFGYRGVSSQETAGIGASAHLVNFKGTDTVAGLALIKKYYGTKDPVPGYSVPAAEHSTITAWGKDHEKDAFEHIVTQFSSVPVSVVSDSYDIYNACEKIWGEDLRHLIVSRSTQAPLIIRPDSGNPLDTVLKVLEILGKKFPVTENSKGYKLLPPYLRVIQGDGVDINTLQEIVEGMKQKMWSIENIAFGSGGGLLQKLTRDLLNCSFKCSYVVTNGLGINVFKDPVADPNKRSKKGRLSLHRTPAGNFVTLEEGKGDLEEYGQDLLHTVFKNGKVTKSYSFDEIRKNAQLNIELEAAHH
- Method notes: NAMPT enzyme assay (TR-FRET/HTRF with BodiPY ligand)
- Type: binding
- Study conditions: NAMPT inhibition at compound concentration 1 μM; read-out: Percent Inhibition
Quantity name: inhibition at 1 µM (%)
Numbers only; they are read as %.

# count of solved cases: 6
Compound structure string | Readout unit | inhibition at 1 µM
CCOc1cc(-c2cc(OC)ncc2F)nc2cc(C(=O)NCc3nc4cnccc4[nH]3)ccc12 | % | 99
CCOc1cc(-c2cccnc2C)nc2cc(C(=O)NCCCc3nnc[nH]3)ccc12 | % | 87
CCOc1cc(-c2cnc(OC)c(F)c2)nc2cc(C(=O)NCCCc3nnc[nH]3)ccc12 | % | 96
CCOc1cc(-c2cccnc2)nc2cc(C(=O)NCCCc3nnc[nH]3)ccc12 | % | 92
CCOc1cc(-c2ccc(C)nc2)nc2cc(C(=O)NCCc3c[nH]nc3C)ccc12 | % | 97
CCOc1cc(-c2ccc(F)cc2)nc2cc(C(=O)NCCc3cnn[nH]3)ccc12 | % | 99

Continue with the molecule presented below.
CCOc1nc(-c2ccc(F)cc2)nc2cc(C(=O)NCc3ccc4nccn4c3)ccc12 has a reported inhibition at 1 µM of 97
